The reported measurements were obtained from patent US20190284293A1.

subject of test: T1, CD32b (FcgRIIb) (Homo sapiens, UniProt P31994)
T1 sequence (P31994 43-310): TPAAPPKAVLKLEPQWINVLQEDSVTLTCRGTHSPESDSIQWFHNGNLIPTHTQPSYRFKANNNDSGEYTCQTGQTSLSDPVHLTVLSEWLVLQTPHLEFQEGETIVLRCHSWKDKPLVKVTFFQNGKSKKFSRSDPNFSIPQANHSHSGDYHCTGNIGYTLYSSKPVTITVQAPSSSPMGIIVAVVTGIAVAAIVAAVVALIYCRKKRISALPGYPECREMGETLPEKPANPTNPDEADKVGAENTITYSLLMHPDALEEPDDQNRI
experiment summary: SPR, antibody binding to anti-his Fab captured FcgR-his (% Rmax)
run parameters: 1 μM antibody
measurement type: % Rmax hCD32b (%)
Number only, in %; omit the unit.

## Input Write down % Rmax hCD32b measured for item mAb11-IgG2.5 (protein, left off: another chain or arm of the molecule) constant: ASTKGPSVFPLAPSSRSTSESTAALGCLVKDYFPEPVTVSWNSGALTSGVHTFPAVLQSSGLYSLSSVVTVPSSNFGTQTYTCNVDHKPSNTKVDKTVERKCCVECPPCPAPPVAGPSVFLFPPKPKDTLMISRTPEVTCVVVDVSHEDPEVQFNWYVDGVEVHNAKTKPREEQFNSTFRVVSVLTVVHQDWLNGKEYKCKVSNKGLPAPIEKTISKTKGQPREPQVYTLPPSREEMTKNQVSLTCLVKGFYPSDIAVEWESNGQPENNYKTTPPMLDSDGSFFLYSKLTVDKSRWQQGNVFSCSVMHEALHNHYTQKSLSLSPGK
## Output 3
